ASSAY_TEXT: VP16 counterscreen qHTS for inhibitors of ROR gamma transcriptional activity;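 further: Gal4-VP16 expression switched on by copper sulfate through the metallothionein promoter; nearly all actives have a fitted effect of over 50% in size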
STUDY_CONDITIONS: Drosophila S2 Gal4-VP16 UAS-luciferase, luminescence, 20 h; series mostly up to 53.6 µM
The whole screen tested about 310,000 compounds, of which about 11,000 (3.5%) were called active. About 8% were inconclusive and are not listed. The call rests on the fitted dose curve; in most records, active means well fitted inhibition curve with a large enough effect; inconclusive means small, poorly fitted or top-dose-only effect, or effect the other way; inactive means flat fitted curve, though single readings scatter. Shown is part of a subset that was picked to be rich in actives.
Possible outcomes: active, inactive

given_smiles=Cc1cc(C(=O)NCCc2ccc(Cl)cc2)c(C)o1 label_value=inactive
given_smiles=Cc1c(NC(=S)NCc2ccc(F)cc2)cccc1[N+](=O)[O-] label_value=active
given_smiles=Cc1c(NC(=O)Nc2ccccc2)cccc1[N+](=O)[O-] label_value=inactive
given_smiles=Cc1cccc(NC(=S)N2CCC(O)CC2)c1C label_value=inactive
given_smiles=Cc1ccc(NC(=S)NCCc2ccc(Cl)cc2)c(C)c1 label_value=active
given_smiles=Cc1cccc(NC(=O)c2cccc(C(=O)Nc3cccc(C)c3C)n2)c1C label_value=inactive

* * *

ASSAY_TEXT: VP16 counterscreen qHTS for inhibitors of ROR gamma transcriptional activity;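 further: Gal4-VP16 expression switched on by copper sulfate through the metallothionein promoter; nearly all actives have a fitted effect of over 50% in size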
STUDY_CONDITIONS: Drosophila S2 Gal4-VP16 UAS-luciferase, luminescence, 20 h; series mostly up to 53.6 µM
Screen size: about 310,000 compounds; about 11,000 (3.5%) were called active. Inconclusive results (about 8%) are left out. Shown is part of a subset that was picked to be rich in actives.
READOUT_TYPE: outcome

molecule=COc1ccc(CCNc2nc(-c3cccc(NC(C)=O)c3)cs2)cc1OC result_value=inactive
molecule=COc1cccc(CC(=O)Nc2nc(-c3ccc(OC)c(OC)c3)cs2)c1 result_value=inactive
molecule="COc1cccc(/C=C2\\Sc3ccc(C(=O)NCC4CCCO4)cc3N(C)C2=O)c1 (stereo not drawn)" result_value=inactive

* * *

ASSAY_TEXT: VP16 counterscreen qHTS for inhibitors of ROR gamma transcriptional activity;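 further: Gal4-VP16 expression switched on by copper sulfate through the metallothionein promoter; nearly all actives have a fitted effect of over 50% in size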; further: potency means the concentration at half of the fitted maximal effect
STUDY_CONDITIONS: Drosophila S2 Gal4-VP16 UAS-luciferase, luminescence, 20 h; series mostly up to 53.6 µM
In all, about 310,000 compounds went through this assay and about 11,000 (3.5%) were called active. Inconclusive results (about 8%) are left out. Only a selection was taken, and actives are over-represented in it overall.
READOUT_TYPE: Potency

given_smiles=O=C1c2cccc3cc(Br)cc(c23)C(=O)N1Nc1ccccc1 readout_type=Potency result_value=inactive
given_smiles=Cc1cccc(-n2ncc(C#N)c2-n2cccc2)c1 readout_type=Potency result_value=inactive
given_smiles=CCCCCCCCn1c2c(c(=N)c3c1CCC3)CCCC2 readout_type=Potency result_value="2.51 µM (active)"
given_smiles=Cc1cccc(-n2ncc(Cl)c(Cl)c2=O)c1 readout_type=Potency result_value="14.1 µM (active)"
given_smiles=N#CNC1=NCN(CCc2ccccc2)CN1 readout_type=Potency result_value=inactive
given_smiles=N#Cc1ccccc1NC(=O)c1ccc2c(c1)OCO2 readout_type=Potency result_value=inactive
given_smiles=CCCn1c(=S)[nH]c2ccc(C(F)(F)F)cc21 readout_type=Potency result_value=inactive

* * *

ASSAY_TEXT: VP16 counterscreen qHTS for inhibitors of ROR gamma transcriptional activity;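 further: Gal4-VP16 expression switched on by copper sulfate through the metallothionein promoter; nearly all actives have a fitted effect of over 50% in size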
STUDY_CONDITIONS: Drosophila S2 Gal4-VP16 UAS-luciferase, luminescence, 20 h; series mostly up to 53.6 µM
Among all 310,000 compounds or so, about 11,000 (3.5%) were called active. Inconclusive results (about 8%) are left out. Calls follow the shape of the dose curve; as a rule, active = well fitted inhibition curve with a large enough effect; inconclusive = small, poorly fitted or top-dose-only effect, or effect the other way; inactive = flat fitted curve, though single readings scatter. The sample holds actives, similar compounds and a random draw of the others, so the mix is not that of the screen.
Outcome codes: TRUE (active), FALSE (inactive)

compound=COc1cccc(N2C(=O)CN(Cc3ccccc3)C2=S)c1 label_value=FALSE
compound=Cc1nn(CC(=O)NC2CCCCC2)c(=O)c2cccn12 label_value=FALSE
compound=COc1cc2[nH]c(=S)n(Cc3ccc(C)o3)c(=O)c2cc1OC label_value=TRUE
compound="CC1CC(=O)Nc2ccccc2N1S(=O)(=O)c1cccs1 (configuration not stated)" label_value=FALSE
compound=O=C(Nc1ccccc1-c1nc2ccccc2[nH]c1=O)c1cccs1 label_value=FALSE
compound=CCOc1cc2[nH]c(=S)n(Cc3ccc(C(=O)NCCOC)cc3)c(=O)c2cc1OCC label_value=FALSE
compound=COc1cc(SC#N)ccc1N=Cc1c(C)[nH]n(-c2ccc(C)cc2)c1=O label_value=TRUE
compound=CC(C)c1ccc(S(=O)(=O)NC2CCCC2)cc1 label_value=FALSE
compound=COC(=O)c1ccc(OC(=O)c2cnccn2)cc1 label_value=FALSE
compound="Cc1cc(C)n(CC(O)COc2ccc(C(C)(C)C)cc2)n1 (configuration not stated)" label_value=FALSE
compound=CC(C)C(=O)Nc1c2c(nn1-c1ccccc1)CSC2 label_value=FALSE
compound=Cc1ccc(C)c(N2CCN(C(=O)CCCCn3c(=O)[nH]c4ccccc4c3=O)CC2)c1 label_value=FALSE
compound=CCn1c2ccc(F)cc2c2nnc(SCCN3CCOCC3)nc21 label_value=FALSE
compound=COc1cccc(-n2c(=S)[nH]c3c(oc4ccccc43)c2=O)c1 label_value=TRUE
compound=C/C(=N\NC(=O)c1ccc2ccccc2c1)c1cccnc1 label_value=FALSE
compound=Cc1ccc(C)c(N2CCN(C(=O)CCCCCn3c(=S)[nH]c4ccc(N5CCOCC5)cc4c3=O)CC2)c1 label_value=TRUE
compound="CC(=O)N1c2ccc(S(=O)(=O)NCCC(=O)N(C)C3CCCCC3)cc2CC1C (configuration not stated)" label_value=FALSE
compound=CCn1c(/C=N/NC(=O)c2ccc(OC)cc2)nc2ccccc21 label_value=FALSE
compound=C/C(=N\Nc1nc(Nc2ccccc2)nc(N2CCOCC2)n1)c1cccs1 label_value=FALSE
compound=Cc1ccc(C)c(N2CCN(C(=O)CCCn3c(=O)c4cccn4c4cccnc43)CC2)c1 label_value=FALSE
compound="COc1cc2[nH]c(=S)n(CCN3CCCCC3C)c(=O)c2cc1OC (configuration not stated)" label_value=FALSE
compound=COc1cc(NS(=O)(=O)c2ccc(N=Cc3c(C)[nH]n(-c4ccccc4)c3=O)cc2)nc(OC)n1 label_value=FALSE
